system: Triticum aestivum (TRZAS); type: in vivo; conditions: crop plant compatibility, 80 g/ha, effect vs untreated controls
observable: Post-emergence action against TRZAS in % (%)
Numbers only, in %.

compound	Post-emergence action against TRZAS in %, %
CC(=O)CNC(=O)COc1nn(-c2ccnc(F)c2)c(-c2ccc(F)nc2)c1Br [III-07]	0
Cc1ncccc1-n1nc(OCC(=O)O)c(Br)c1-c1cncc(F)c1 [II-38]	10
CCOC(=O)COc1nn(-c2ccc(Br)c(C)n2)c(-c2cncc(F)c2)c1Br [Example I-161]	0

Now turn to the next compound.
Endpoint output: Post-emergence action against TRZAS in % of Cc1cccc(-n2nc(OCC(=O)O)c(Br)c2-c2ccc(F)nc2)n1 [Example I-376] . Value?
0

###

system: Alopecurus myosuroides (ALOMY); assay: Pre-emergence herbicidal action against ALOMY; type: in vivo; conditions: 320 g/ha; scored visually after about 3 weeks; 100% = plants have died
Give Pre-emergence action against ALOMY for every item shown.
Give bare numbers, in %.

Worked cases, answers included:
O=C(O)CSc1nn(-c2ccccn2)c(-c2cncc(F)c2)c1C1CC1 90
O=C(O)COc1nn(-c2ccccn2)c(-c2ccc(F)nc2)c1Cl 100
COC(=O)[C@@H](C)Oc1nn(-c2ccccn2)c(-c2ccc(Cl)nc2)c1Br 80

Now turn to the next compound.
Endpoint output: Pre-emergence action against ALOMY of CCOC(=O)[C@@H](C)Oc1nn(-c2nc(F)ccc2F)c(-c2ccc(F)nc2)c1Br . Value?
100

###

System: Zea mays (ZEAMX)
Type: in vivo
Details: pre-emergence, 80 g/ha, crop plant compatibility, in comparison to untreated controls
Description: Seeds of monocotyledonous and dicotyledonous weed plants and crop plants are placed in plastic or organic planting pots and covered with soil. […] After about 3 weeks, the effect of the preparations is scored visually in comparison with untreated controls as percentages. […]
Give Pre-emergence action against ZEAMX in % for every item shown.
Answers are plain numbers, in %.

compound	test_target	observable	unit_symbol	result_value
COC(=O)CCOC(=O)C(C)Oc1nn(-c2ccccn2)c(-c2ccc(F)nc2)c1C(F)(F)F (stereo not drawn) [Example I-293]	Zea mays (ZEAMX)	Pre-emergence action against ZEAMX in %	%	20
COC(=O)CCOC(=O)COc1nn(-c2cccc(C)n2)c(-c2ccc(F)nc2)c1Br [Example I-278]	Zea mays (ZEAMX)	Pre-emergence action against ZEAMX in %	%	0
CC(=O)CNC(=O)COc1nn(-c2ccnc(F)c2)c(-c2ccc(F)nc2)c1Br [III-07]	Zea mays (ZEAMX)	Pre-emergence action against ZEAMX in %	%	0
COc1cccnc1-n1nc(OCC(=O)O)c(Cl)c1-c1ccc(F)nc1 [Example I-329]	Zea mays (ZEAMX)	Pre-emergence action against ZEAMX in %	%	0
CCOC(=O)COc1nn(-c2ccccn2)c(-c2ccc(F)nc2)c1C1CC1 [Example I-78]	Zea mays (ZEAMX)	Pre-emergence action against ZEAMX in %	%	0

Now turn to the next compound.
Param readout= Pre-emergence action against ZEAMX in %; system= Zea mays (ZEAMX); entry= CCOC(=O)COc1nn(-c2ccccn2)c(-c2cncc(F)c2)c1Cl [Example I-147] ; returns value.
0

###

Give Post-emergence action against PHBPU in % for every item shown.
system: Pharbitis purpurea (PHBPU); experiment: Post-emergence herbicidal action against PHBPU; assay type: in vivo; conditions: dosage 80 g/ha
Numbers only, in %.

Worked cases, answers included:
molecule	unit_symbol	result_value
C[C@@H](Oc1nn(-c2nc(F)ccc2F)c(-c2ccc(F)nc2)c1Br)C(=O)O	%	80
O=C(O)COc1nn(-c2ccccn2)c(-c2ccc(F)nc2)c1C(F)(F)F	%	80
COC(=O)[C@@H](C)Oc1nn(-c2ccccn2)c(-c2cncc(F)c2)c1Cl	%	90
COC(=O)[C@@H](C)NC(=O)COc1nn(-c2ccccn2)c(-c2ccnc(F)c2)c1Br	%	80
CCOC(=O)COc1nn(-c2ncccc2F)c(-c2ccc(F)nc2)c1C1CC1	%	80
O=C(O)COc1nn(-c2ccccn2)c(-c2cncc(F)c2)c1Br	%	90
COC(=O)CCOC(=O)COc1nn(-c2ccccn2)c(-c2ccc(F)nc2)c1F	%	80
COC(=O)C(C)COC(=O)COc1nn(-c2ccccn2)c(-c2cncc(F)c2)c1Cl (centres unmarked)	%	90

Hey, can you go through the list below and give me Post-emergence action against PHBPU in % for every item?
1. COC(=O)CNC(=O)COc1nn(-c2ccccn2)c(-c2ccc(F)nc2)c1Cl
2. COC(=O)[C@H](C)COC(=O)COc1nn(-c2ccccn2)c(-c2cncc(F)c2)c1Cl
3. CCOC(=O)[C@@H](C)Oc1nn(-c2ccccn2)c(-c2cncc(F)c2)c1Cl
4. COC(=O)[C@H](C)COC(=O)COc1nn(-c2ccccn2)c(-c2cncc(F)c2)c1Br
5. COC(=O)CCOC(=O)COc1nn(-c2ccccn2)c(-c2ccc(F)nc2)c1Cl
6. COCCOCCOC(=O)[C@@H](C)Oc1nn(-c2ncccc2F)c(-c2ccc(F)nc2)c1Br
7. CC(C)=NOC(=O)COc1nn(-c2ncccc2F)c(-c2ccc(F)nc2)c1C1CC1

1: 90; 2: 90; 3: 90; 4: 90; 5: 80; 6: 80; 7: 80

Hey, can you go through the list below and give me Post-emergence action against PHBPU in % for every item?
1. COC(=O)[C@@H](C)Oc1nn(-c2ncccc2F)c(-c2cncc(F)c2)c1Cl
2. COC(=O)COc1nn(-c2nc(F)ccc2F)c(-c2cncc(F)c2)c1C1CC1

1. 90
2. 80

###

System: Oryza sativa (ORYSA)
Format: in vivo
Conditions: crop plant compatibility, 320 g/ha, effect in comparison to untreated controls
Method: Seeds of monocotyledonous and dicotyledonous weeds and crop plants are placed in sandy loam in plastic or organic planting pots, covered with soil and cultivated in a greenhouse under controlled growth conditions. 2 to 3 weeks after sowing, the test plants are treated at the one-leaf stage. […]
Give Post-emergence action against ORYSA in % for every item shown.
Numbers only, in %.

Worked cases, answers included:
compound	test_target	Post-emergence action against ORYSA in %, %
O=C(O)C1CCN(C(=O)COc2nn(-c3ccccn3)c(-c3ccc(F)nc3)c2Br)CC1	Oryza sativa (ORYSA)	0
O=C(O)COc1nn(-c2ccncc2)c(-c2ccc(F)nc2)c1Br	Oryza sativa (ORYSA)	0
COC(=O)[C@@H](C)Oc1nn(-c2ccc(F)cn2)c(-c2ccc(F)nc2)c1Br	Oryza sativa (ORYSA)	10
COC(=O)[C@H](C)NC(=O)COc1nn(-c2ccnc(F)c2)c(-c2ccc(F)nc2)c1Br	Oryza sativa (ORYSA)	0

Hey, can you go through the list below and give me Post-emergence action against ORYSA in % for every item?
1. COc1cccnc1-n1nc(OCC(=O)O)c(Cl)c1-c1ccc(F)nc1
2. Cc1ncccc1-n1nc(OCC(=O)O)c(Cl)c1-c1cncc(F)c1
3. Cc1ncccc1-n1nc(OCC(=O)OCC2CCCO2)c(Br)c1-c1cncc(F)c1 (stereo not drawn)
4. COC(=O)CCOC(=O)COc1nn(-c2ccccn2)c(-c2ccc(Cl)nc2)c1Br

1. 0
2. 0
3. 0
4. 10

Endpoint output: Post-emergence action against ORYSA in % of C[C@@H](Oc1nn(-c2ccnc(Cl)c2)c(-c2ccc(F)nc2)c1Br)C(=O)O . Value?
20

###

Give Pre-emergence action against LOLRI in % for every item shown.
Tested on: Lolium rigidum (LOLRI)
Test: Pre-emergence herbicidal action against LOLRI
Format: in vivo
Conditions: dosage 80 g/ha
Description: Seeds of monocotyledonous and dicotyledonous weed plants and crop plants are placed in plastic or organic planting pots and covered with soil. […] After about 3 weeks, the effect of the preparations is scored visually in comparison with untreated controls as percentages. […]
Value and unit, in that order.

Worked cases, answers included:
compound	Pre-emergence action against LOLRI in %
COC(=O)CNC(=O)COc1nn(-c2ccccn2)c(-c2ccc(F)nc2)c1Br [Example I-97]	80%
COC(=O)[C@@H](C)Oc1nn(-c2ncccc2F)c(-c2ccc(F)nc2)c1Br [Example I-05]	80%
O=C(O)COc1nn(-c2ccccn2)c(-c2cncnc2)c1Br [Example I-66]	80%
C[C@@H](Oc1nn(-c2nc(F)ccc2F)c(-c2ccc(F)nc2)c1Br)C(=O)O [Example I-333]	80%
CCOC(=O)COc1nn(-c2ccccn2)c(-c2ccc(F)nc2)c1Br [Example I-86]	100%
COC(=O)[C@@H](C)COC(=O)COc1nn(-c2ccccn2)c(-c2cncc(F)c2)c1Br [Example I-194]	90%
CCOC(=O)[C@@H](C)Oc1nn(-c2nc(F)ccc2F)c(-c2ccc(F)nc2)c1Br [Example I-336]	80%
COC(=O)CCOC(=O)[C@@H](C)Oc1nn(-c2ccccn2)c(-c2ccc(F)nc2)c1Cl [Example I-340]	100%

Hey, can you go through the list below and give me Pre-emergence action against LOLRI in % for every item?
1. C[C@@H](Oc1nn(-c2ccccn2)c(-c2cncc(F)c2)c1Br)C(=O)O [Example I-79]
2. COC(=O)C(C)NC(=O)[C@@H](C)Oc1nn(-c2ccccn2)c(-c2cncc(F)c2)c1Cl (stereo partly shown) [Example I-199]
3. COC(=O)C(C)NC(=O)[C@@H](C)Oc1nn(-c2ccccn2)c(-c2cncc(F)c2)c1Br (stereo partly shown) [Example I-190]
4. O=C(O)COc1nn(-c2ncccc2F)c(-c2ccc(F)nc2)c1Br [Example I-08]
5. C[C@@H](Oc1nn(-c2ncccc2F)c(-c2ccc(F)nc2)c1Br)C(=O)O [Example I-10]
6. COCCOC(=O)[C@@H](C)Oc1nn(-c2ncccc2F)c(-c2ccc(F)nc2)c1Br [Example I-35]

1: 100%; 2: 100%; 3: 100%; 4: 80%; 5: 100%; 6: 90%

Hey, can you go through the list below and give me Pre-emergence action against LOLRI in % for every item?
1. COC(=O)CCOC(=O)COc1nn(-c2ccccn2)c(-c2cncc(F)c2)c1Br [Example I-77]
2. CCOC(=O)COc1nn(-c2ccccn2)c(-c2ccc(F)nc2)c1Br [Example I-02]
3. C[C@@H](Oc1nn(-c2nc(F)ccc2F)c(-c2cncc(F)c2)c1Br)C(=O)O [Example I-155]

1: 90%; 2: 90%; 3: 90%

Hey, can you go through the list below and give me Pre-emergence action against LOLRI in % for every item?
1. COC(=O)[C@@H](C)Oc1nn(-c2nc(F)ccc2F)c(-c2ccc(F)nc2)c1Cl [Example I-332]
2. COC(=O)CNC(=O)[C@@H](C)Oc1nn(-c2ccccn2)c(-c2cncc(F)c2)c1Cl [Example I-185]

1: 90%; 2: 100%
